target entity: human CD3 (human, UniProt P07766 23-207; P04234 22-171; P09693 23-182)
Sequence (P07766 23-207, chain 1 of 3): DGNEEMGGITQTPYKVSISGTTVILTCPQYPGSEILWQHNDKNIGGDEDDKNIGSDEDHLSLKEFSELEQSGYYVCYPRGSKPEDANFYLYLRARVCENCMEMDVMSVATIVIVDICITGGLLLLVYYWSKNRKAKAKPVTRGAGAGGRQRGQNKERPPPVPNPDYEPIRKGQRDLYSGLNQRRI
Sequence (P04234 22-171, chain 2 of 3): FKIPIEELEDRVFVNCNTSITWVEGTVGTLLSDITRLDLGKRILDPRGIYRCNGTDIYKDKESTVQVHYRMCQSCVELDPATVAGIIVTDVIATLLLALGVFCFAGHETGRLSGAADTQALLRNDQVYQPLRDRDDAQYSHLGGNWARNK
Sequence (P09693 23-182, chain 3 of 3): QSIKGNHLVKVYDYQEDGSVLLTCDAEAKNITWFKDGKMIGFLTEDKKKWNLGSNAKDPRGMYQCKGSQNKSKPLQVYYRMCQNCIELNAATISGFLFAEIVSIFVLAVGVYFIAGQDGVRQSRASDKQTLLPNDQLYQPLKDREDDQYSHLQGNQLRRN
protocol details: cell-based or functional assay
experimental readout: CD4 EC50 (nM); CD69/CD25 on human T cells, plate-coated antibody
Please respond with the number in nM and leave the unit unwritten.

Use these answered entries as a reference point.
mAb 44 (antibody, V domains shown) VH: QAQLVQSGSELKKPGASVKVSCKASGYTFTRHAMNWVRQAPGQGLEWMGWINTNTGNPTYAQGFTGRFVFSLDTSVSTAYLKISSLKAEDTAVYYCVREGDYDFWSGFFNFDYWGQGTLVTVSS VL: DIQMTQSPSSLSASVGDRVTITCRASQGIRNDLGWFQQKPGKAPTRLIYAASSLQSGVPSRFSGSGSGAEFTLTISSLQPEDFATYYCLQHNSYPRTFGQGTKVEIK
20.4
mAb 180 (antibody, V domains shown) VH: EVNLVESGGGLVQPGRSLRLSCAASGFTFDDYTMHWVRQVPGKGLEWVSNISWNSGSLGYADSVKGRFTISRDNAKDSLYLQMNSLRVEDTALYYCAKDSSGYGHYNSYYMDVWGKGTTVTVSS VL: DIQMTQSPSSLSASVGDRVTITCRASQSIRNYLNWYQQKPGKAPKVLIYSASSLQSGVPSRFSGSGSGTDFTLTISSLQPEDFASFYCQQTYSTPITFGQGTRLEIK
6.54
mAb 55 (antibody, V domains shown) VH: QVQLEQSGAEVKKPGASVKVSCKTSGYIFANYDINWVRQATGQGLEWMGWMNPKSGKAGYAQKFQGRVTMTSNTPINTAYMELSSLRSEDTAVYYCAREGHYDFWRGFYSFDYWGQGILVTVSS VL: DIQMTQSPSSLSASVGDRVTITCRASQGIRNDLGWYQQKPGKAPKRLIYTASSLQSGVPSRFSGSGSGTEFTLTISSLQPEDFATYFCLQYNTYPYTFGQGTKLEIK
8.54
mAb 129 (antibody, V domains shown) VH: EVQLVESGGDLVKTGGSLRLSCVASGFSFKKAWMNWVRQAPGKGLEWVGRIKRNTDGGATDYAAPVKDRFTLSRDDSKNTLYLQMNSLKTEDTAVYYCTTLDSSSWYVGYYYMDVWGKGTTVTVSS VL: DIHMTQSPSSVSASLGDRVTFTCRASQDINNWLAWYQQKPGKAPRLLIYTASSLQSGVPSRFSGSGSGTDFTLTISSLQPDDFATYYCQQAHSLPITFGQGTRLGIE
12.5
mAb 176 (antibody, V domains shown) VH: EVELVESGGGLVQPGRSLRLSCAASGFKFDDYTMHWVRLPPGKGLEWVSGISWNSGTIDYGDSVKGRFTISRDNAKNSLYLQMNSLRVEDTALYYCAKDTSGYGHYFYYYMDVWGKGTTVTVSS VL: DIQMTQSPSSLSASIGDRVSITCRTSQIINNYLNWYQQKPGKAPKVLIYSASSLQSGVPSRFSGSGSGTDFTLTINSLQPEDFATYYCQQSYNFPITFGQGTRLELK
6.38
mAb 130 (antibody, V domains shown) VH: EVQLVESGGGLVKTGGSLRLSCVASGFSFKKAWMNWVRQAPGKGLEWVGRIKRNSDGGATDYAAPVKDRFTLSRDDSKNTLYLQMNSLKTEDTAVYYCTTLDSSSWYVGYYYMDVWGKGTTVTVSS VL: DIHMTQSPSSVSASLGDRVTFTCRASQDINNWLAWYQQRPGKAPKLLIYTASSLQSGVPSRFSGSGSGTDFTLTISSLQPEDFATYYCQQAHSLPITFGQGTRLGIK
10.9
mAb 128 (antibody, V domains shown) VH: EVQLVESGGGLVQPGRSLRLSCAASGFTFDDYTMHWVRQAPGKGLEWVSGISWNSGSIGYADSVKGRFTISRDNAKNSLYLQMNSLRAEDTALYYCAKDSSGYGYYYYYSMDVWGKGTTVTVSS VL: EIVMTQSPATLSVSPGERATLSCRASQSVSSNLAWYQQKPGQAPRLLIYGASTRATGIPARFSGSGSGTEFTLTISSLQSEDFAVYYCQLYYNWPHFGQGTRLAIK
11.6
mAb 71 (antibody, V domains shown) VH: QVQLVQSGAEVRKPGASVKVSCKASGYTFTKYDVNWVRQAPGQGLEWMGWMNSNNGNIGYAQKFQGRVTMTRKTSISTAYMELSSLRSEDTAVYYCAREGHYDFWRGFYNFDYWGQGTLVTVSS VL: DIQMTQSPSSLSASVGDRVTITCRASQDIKNDLGWYQQKPGKAPKRLIYAASSLQSGVPSRFSGSGSGTEFTLTISSLQPEDFATYYCLQHNFYPITFGQGTRLEIK
19.3
mAb 131 (antibody, V domains shown) VH: EVQLVESGGGLVKTGGSLRISCVASGFSFKKAWMNWVRQAPGKGLEWVGRIKRNTDGGTIDYAAPVKGRFSLSRDDSKNTLFLQMNSLKTEDTAVYFCTTLDSSSYYVGYYYMDVWGKGTTVTVSS VL: DIHMTQSPSSVSASVGDRVTITCRASQDINNWLAWYQQKPGKAPKLLIYTASSLQSGVPSRFSGSGSGTDFTLTISSLQPEDFATYFCQQAHSLPITFGQGTRLGIK
13.3

Query string: Quick one: CD4 EC50 (nM); CD69/CD25 on human T cells, plate-coated antibody for mAb 132 (antibody, V domains shown) VH: DVQLVESGGGTVKTGGSLRLSCVASGFSFKKAWMNWVRQAPGKGLEWVGRIKKNSDGGTADYAAPVKGRFTISRDDSKKTLYLQMNSLQTEDTAVYYCTTLDSSSWYVGYYYMDVWGKGTTVTVSS VL: DIQMTQSPSSVSASVGDRVIITCRASQDINNWLAWYQQKPGIAPKLLIYTASSLQSGVPSRFSGSGSVSDFTLTIGSLQPEDFATYYCQQAHSLPITFGQGTRLEIK ?
Result string: 6.39
